Assay: yeast display, Sf9 membrane polyspecificity reagent, FACS + sequencing; frameworks hold sequencing errors
metric_name: polyreactivity (PSR sort gate)

QVQLVESGGGIVQAGGSLRLSCAASGRTFAYYTMGWYRQAPGKERELVARISNRGTNTYYADSVKGRFTISRDNAKNTVYLQMNSLKPEDTAVYYCAKYYYTSIVGYDSWGQGTQVTVSS: low polyreactivity
QVQLVESGGGLVQAGGSLRLSCAASGRIFNKNAMGWYRQAPGKERELVAAISWSGTSTYYADSVKGRFTISRDTAKNTVYLQMHSLKPEDTAVYYCAAADFYYTGADDYWGQGTQVTVSS: high polyreactivity
QVQLLESGGGLFQAGGSLRLICAASGRIFDENAMGWYRQAPRKDREMVAAISWSGGITYYADSVKGRFTISRDYAKNNVYLQMNSLKPEDTAVYYCAADIFQGYTFYQGYPGGAGYWGQGTQVTVSS: low polyreactivity
QVQLVESGGGLVQAGGSLRLSCAASGSIFSAYVMGWYRQAPGKERELVAAINRGGNTYYADSVKGRFTISRDNAKNTVYLQMNSLKPEDTAVYYCNAQWYYLRYRYDYWGQGTQVTVSS: high polyreactivity
QVQLVESGGGLVQAGGRLRISCAATGSTSVRNAMGWSRQGPGKESELVAGISRGGGITYYADSVKGRFTISRDNAKNTVYLQMNILKTEDTAVYYCAAVYYVDYPDGNYEYWGQGTQVTVSS: high polyreactivity
QVQLVESGGGLVQAGGSLRLSCAASGFTFRVNAMGWYRQAPGKERELVAAISWTGGSTYYADSVKGRFTISRDNAKNTVYLQMNSLKPEDTAVYYCATRFGGRYNEFGFWGQGTQVTVSS: low polyreactivity

For the sequence QVQLVESGGGLVQAGGSLRLSCAASGSTLSLYAMGWYRQAPGKERELVAAITSSGGTYYADSVKGRFTISRDNAKNTVYLQMNGLKPEDTAVYYCAAQSYSRMDYWGQGTQVTVSS , give its measured polyreactivity (PSR sort gate) value.
high polyreactivity

For the sequence QVQLVESGGGLVQAGGSLRLSCAASGRIFSPNAMGWYRQAPGKERELVAAITRGGSTNYADSVKGRFTISRDNAKNTVYLQMNSLKPEDTAVYYCAAQLAKTISGRGYNSWGQGTQVTVSS , give its measured polyreactivity (PSR sort gate) value.
low polyreactivity
